Data credit: ChEMBL document CHEMBL2021798

test.summary: Oral bioavailability in rat at 3 mg/kg
Assay type: ADME, organism-based
condition.summary: in vivo
property.label: bioavailability (%)
Report only the number, with the unit % understood.

Measured bioavailability, CCOc1cc2nccc(Oc3cnc(CC(=O)Nc4n[nH]c(CC)c4C)c(OC)c3)c2cc1OC : 43

* * *

test.summary: Clearance in rat at 3 mg/kg, po
Format: ADME, organism-based
Design: dose 3 mg/kg, route oral
condition.summary: in vivo
property.label: CL/F (mL/min/kg)
Report only the number, with the unit mL/min/kg understood.

Measured CL/F, CCOc1cc2nccc(Oc3cnc(CC(=O)Nc4n[nH]c(CC)c4C)c(OC)c3)c2cc1OC : 9

* * *

Reported CL/F values follow for various molecules
test.summary: Clearance in dog at 20 mg/kg, po
Format: ADME, organism-based, Canis lupus familiaris
Design: dose 20 mg/kg, route oral
condition.summary: in vivo
In your response, put the unit directly after the numeric value.

COc1ccc2c(Oc3ccc(CC(=O)Nc4cn(C)nc4C)c(OC)c3)ccnc2c1.O=S(=O)(O)O : 0.15 L/h/kg

// moving on: another record for CL/F
Measured CL/F, COc1ccc2c(Oc3ccc(CC(=O)Nc4cn(C)nc4C)c(OC)c3)ccnc2c1 : 0.144 L/h/kg
